# study_target: Spike protein, wild-type (Wuhan) (SARS-CoV-2 (wild-type, original Wuhan …, UniProt P0DTC2 14-1213))
# experimental_details: ELONA; Tris buffer; […], pH 7.4, room temperature, spike immobilized; […], pH 7.4 ([…]
# condition_info: protein: recombinant; chain copies: 3; label: 3' biotin
readout: Kd (nM)
Reply with just the number (in nM).

Some solved entries appear below for comparison.
INSERT INTO measurements (binder, measured) VALUES
  ('ACGAGCTCGAACGCCCGGAGGAGACGGGGGCAGGGCGTGTTCACTGC (ssDNA) [Oligo30]', 245),
  ('K1 (truncated working aptamer) (ssDNA) DNA: AATGGATCCACATCTACGAGCTCGAACGCCCGGAGGAGACGGGGGCAGGGCGTGTTCACTGCAGACTTGACGAAGCT', 0.066),
  ('M40 (truncated working aptamer) (ssDNA) DNA: ATCTACGAATTCTCCGCCAAGATAGAGGGTGGGCCGCGGAGAATTCACTGC', 0.155);

Kindly review the next binder as well.
Exercise: Quick check: Kd of Oligo14 (ssDNA) DNA: CCACATCTACGAGCTCGAACGCCCGGAGGAGACGGGGGCAGGGCGTGTTCACTGCAGACTTGA ?
Key: 5.29
